Below, each entry is listed alongside its reported Cell viability.
system: differentiated SH-SY5Y cells; experiment: Toxicity screening on differentiated SH-SY5Y cells; assay type: cell-based, human; details: 1 μM, MTT, mean ± SD (n = 5)
Please make sure the unit comes right after the number.

Here are 3 compounds together with their reported answers.
COMPOUND: COc1c(C(=O)/C=C(\O)c2ccccc2)ccc2occc12
MEASURE: Cell viability
MEASURED_VALUE: 103.6 ± 1.1 % control
--
COMPOUND: COc1cc(/C=C/C(=O)CC(=O)/C=C/c2ccc(O)c(OC)c2)ccc1O [Curcumin, reference compound]
MEASURE: Cell viability
MEASURED_VALUE: 100.4 ± 4.6 % control
--
COMPOUND: O=c1cc(-c2ccccc2)oc2c1ccc1occc12
MEASURE: Cell viability
MEASURED_VALUE: 100.1 ± 2.6 % control

What does the data say about its Cell viability? Entry: COc1c2ccoc2cc2oc(-c3ccccc3)cc(=O)c12
99.3 ± 4.7 % control

---

target: Aβ1–42 (Homo sapiens, UniProt P05067); experiment: biochemical; details: Aβ aggregation (IC50), Aβ1-42, ThT, 37 °C 48 h, compounds 0–200 μM
Sequence (P05067 672-713): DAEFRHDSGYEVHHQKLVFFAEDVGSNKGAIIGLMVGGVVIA
MEASURE: IC50 (µM)
State just the number; it will be interpreted in µM.

Form field: IC50 recorded for O=c1cc(-c2ccccc2)oc2c1ccc1occc12 with Aβ1–42 (Homo sapiens, UniProt P05067) (enter value)
106

Form field: IC50 recorded for COc1c2ccoc2cc2oc(-c3ccccc3)cc(=O)c12 with Aβ1–42 (Homo sapiens, UniProt P05067) (enter value)
195

---

system: differentiated SH-SY5Y cells; assay: Toxicity screening on differentiated SH-SY5Y cells; assay type: cell-based, human; conditions: 10 μM, MTT, mean ± SD (n = 5)
MEASURE: Cell viability
Please make sure the unit comes right after the number.

Here are 2 compounds together with their reported answers.
CHEMICAL_STRING: COc1c(C(=O)/C=C(\O)c2ccccc2)ccc2occc12
Cell viability: 104.3 ± 3.8 % control

CHEMICAL_STRING: COc1c2ccoc2cc2oc(-c3ccccc3)cc(=O)c12
Cell viability: 96.1 ± 4.3 % control

Next:
Form field: Cell viability recorded for O=c1cc(-c2ccccc2)oc2c1ccc1occc12 with differentiated SH-SY5Y cells (enter value)
97.4 ± 3.2 % control
